Exercise: state measured nuclei count for each of the compounds provided.
Experiment: reduction of polyQ htt aggregates in cells – imaging, exon1htt(103Q)mCFP cells, high-content imaging, primary screen (AID 483);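 further: compound exposure lasted 3 days before fixation; percent of the per-plate median nuclei count of sample wells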
Conditions: exon1htt(103Q)mCFP cell line, aggregate imaging, at 2 µM; measured here: cell count, toxicity
Answers are plain numbers, in %.

Would you please look over these solved cases?
Ask | Query: nuclei count; subject: `O=C(NCCCN1CCN(CCCNC(=O)c2ccc(F)cc2)CC1)c1ccc(F)cc1`
Reply | 109

Ask | Query: nuclei count; subject: CCOP(=O)(c1ccc(N(C)C)cc1)C(O)c1c(Cl)cccc1Cl (centres undefined)
Reply | 99.5

Ask | Query: nuclei count; subject: `COC(=O)c1ccccc1NC(=O)c1noc2c1CCC2`
Reply | 100

Ask | Query: nuclei count; subject: `CCOC(=O)c1cc(C)n(CCCN2CCOCC2)c1C`
Reply | 114

Ask | Query: nuclei count; subject: `c1cncc(-c2nc3c4ccccc4nc(N4CCC(N5CCCCC5)CC4)n3n2)c1`
Reply | 97.3

Parameter requested: nuclei count. Apply to each item below.
1. CCCN1CCN(CCCNC(=O)Cn2nc(-c3ccc(Cl)cc3)ccc2=O)CC1
2. COc1cccc(NC(=O)Cc2nnc(SCC(=O)c3ccccc3)n2C)c1
3. Cc1cc(C)n(C(C)n2nc(C)cc2C)n1

Reply |
106
88.6
110

Parameter requested: nuclei count. Apply to each item below.
1. COC(=O)c1ccccc1NC(=O)Cn1c(-c2nonc2N)nc2ccccc21
2. COc1ccc(OC)c(C2CC(=O)NC(SC)=C2C#N)c1 (centres undefined)
3. Cc1ccc(-c2cc(C(=O)Nc3cc(C)ccc3C)[nH]n2)c(O)c1
4. Cn1c(C(=O)OC(C(=O)NC2CCCC2)c2cccnc2)cc2sccc21 (centres undefined)

Reply |
1: 1.9; 2: 114; 3: 120; 4: 100

Parameter requested: nuclei count. Apply to each item below.
1. CC1CCc2nn(CC(=O)NCc3ccc(F)cc3)cc2C1 (centres undefined)
2. COc1ccc(OC)c(NC(=O)CCN2CCN(c3ccccc3F)CC2)c1
3. CC(C)NC(=O)Nc1cccs1
4. O=C(Nc1ccc(Cc2ccncc2)cc1)C1CC1
5. COc1ccc(CC(=O)OCC(=O)NC(=O)NC2CCCCC2)cc1
6. O=C1CCC(C(=O)N(Cc2ccco2)C2(C(=O)NC3CCCC3)CCCCC2)N1 (centres undefined)
7. COc1ccc(N2CCC(CNS(=O)(=O)c3cccc(C(F)(F)F)c3)C2)cc1 (centres undefined)

Reply |
1. 112
2. 81.2
3. 104
4. 100
5. 80.9
6. 116
7. 92.1

Parameter requested: nuclei count. Apply to each item below.
1. N#CCCN(Cc1cccnc1)C(=O)Nc1ccc(Cl)c(Cl)c1
2. Cc1[nH]n(C(N)=S)c(=O)c1C(c1ccccc1)C(C#N)C#N (centres undefined)
3. CN(C)CCCN1C(=O)c2oc3ccc(Cl)cc3c(=O)c2C1c1cccnc1 (centres undefined)
4. Cn1nc(C(C)(C)C)cc1C(=O)NCc1ccc(N2CCCC2=O)cc1
5. N#Cc1c(-c2ccc3c(c2)OCO3)csc1N

Reply |
109
107
112
70.7
94

###

Assay: inhibitors of larval lipid processing in zebrafish, primary screen, whole organism, PED6 fluorescence, gall bladder and intestine (AID 686);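 further: larvae 5 to 7 days old with five fish per well; signal comes from phospholipase A2 cleavage of quenched PED6 carried via bile; overnight exposure to compound and PED6 before scoring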
Settings: Zebrafish larvae PED6 lipid processing, fluorescence scoring; screened at 20 µM (by protocol)
The source made the active and inactive calls.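 How the source made its calls: active means a full or partial loss of lipid-probe fluorescence in the fish gall bladder, intestine or both, judged by eye; inactive means no fluorescence loss, or compound toxic to the fish.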
Hi there, use one of these labels in your reply, thanks! y (active), n (inactive)

Here are 2 molecules together with their reported answers.
Ask | What call does the record list for `Cc1ccc(Cl)cc1N1CCN(C(=O)c2cn(C)c(=O)c3c2c2ccccc2n3C)CC1` ?
Reply | n

Ask | What call does the record list for `Cc1ccc2nc(C3CCN(CC(=O)N4CCCCCC4)CC3)[nH]c2c1` ?
Reply | y

***
Ask | What call does the record list for `COc1ccc(C(=O)CSc2nnc(-c3ccc(C)cc3)o2)cc1` ?
Reply | n

Ask | What call does the record list for `Cc1cc(C(=O)COC(=O)c2n[nH]c3ccccc23)c(C)n1C` ?
Reply | n

Ask | What call does the record list for `O=C(NCc1cccnc1)c1cccc(C(F)(F)F)c1` ?
Reply | n

###

Test: inhibitors of TNFa-induced NFkB p65 translocation, primary screen, imaging, HUVEC, MLSMR starter and 10KST1 sets (AID 438);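 further: compound added about 3h40 before a 20 min TNFalpha stimulation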
Conditions: HUVEC TNFa-induced p65 nuclear translocation; measured here: nuclei count (cytotoxicity indicator), at 2.08 µM
Exercise: state measured cell count for each of the compounds provided.
Answers are plain numbers.

Parameter requested: cell count. Apply to each item below.
1. CC(C)(C)C(=O)Cn1c(=N)n(Cc2ccccc2)c2ccccc21
2. CCc1ccccc1NC(=O)C(CC)Sc1nc2cc3c(cc2c(=O)n1Cc1ccco1)OCO3 (stereo not drawn)
3. O=C(Cn1ccc2ccccc2c1=O)NCCC(=O)N1CCN(C(=O)c2ccco2)CC1

Reply |
1: 394; 2: 486; 3: 397

###

Target: Alpha-2C adrenergic receptor (Homo sapiens) (UniProt P18825)
Sequence (P18825 whole entry, looked up): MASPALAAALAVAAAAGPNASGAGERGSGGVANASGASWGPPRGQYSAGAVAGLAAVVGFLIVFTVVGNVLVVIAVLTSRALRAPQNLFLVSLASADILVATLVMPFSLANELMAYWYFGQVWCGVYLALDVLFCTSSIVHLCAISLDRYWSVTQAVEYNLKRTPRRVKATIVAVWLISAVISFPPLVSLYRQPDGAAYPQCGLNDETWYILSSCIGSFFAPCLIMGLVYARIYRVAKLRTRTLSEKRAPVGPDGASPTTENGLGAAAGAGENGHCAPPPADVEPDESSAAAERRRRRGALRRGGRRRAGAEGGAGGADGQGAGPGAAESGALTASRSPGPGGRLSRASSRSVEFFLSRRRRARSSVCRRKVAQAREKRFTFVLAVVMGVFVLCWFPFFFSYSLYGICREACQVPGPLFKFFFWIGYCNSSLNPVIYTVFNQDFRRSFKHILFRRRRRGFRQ
Assay: compounds altering alpha2C-coupled GIRK flux – cell-based, HEK293 alpha2C/GIRK1/2, thallium flux, primary screen (AID 624);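 further: slope of fluorescence ratio to pre-addition baseline per second over 15 to 24 s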
Conditions: thallium flux BTC fluorescence, at 10 µM, actives lie on both sides
Assign a class from recorded slope; defined classes: low end = under 0.005, middle = from 0.005 up to 0.006, high end = 0.006 and over

Ask | Which band does `Cc1sc2nc(SCC(=O)N3CCN(CCO)CC3)n(-c3ccccc3)c(=O)c2c1C` fall in?
Reply | middle

Ask | Which band does `COc1ccccc1N1CCN(C/C(O)=C(\C#N)c2nc(-c3ccccc3)cs2)CC1` fall in?
Reply | middle

Ask | Which band does `Cc1noc(C)c1C(=O)N1CCN(C(=O)c2sc3cc(Cl)ccc3c2Cl)CC1` fall in?
Reply | low end

Ask | Which band does `O=C(Nc1ccc(-c2nc3ncccc3o2)cc1)c1ccc(Br)o1` fall in?
Reply | middle

Ask | Which band does `O=C(c1nn2cccnc2c1Cl)N1CCN(c2ccccc2)CC1` fall in?
Reply | low end

Ask | Which band does `Cc1csc(NC(=O)c2ccccc2C(=O)O)n1` fall in?
Reply | middle

Ask | Which band does `CCOc1cc(NC(=O)c2ccco2)c(OCC)cc1NC(=O)COc1ccccc1C` fall in?
Reply | high end

Ask | Which band does `CCOC(=O)c1cc2c(=O)n3ccccc3nc2n(CCCOC)c1=NC(=O)C(C)(C)C` fall in?
Reply | low end

Ask | Which band does COc1ccc(CNC(=O)C(c2ccco2)N(Cc2cccs2)C(=O)Cc2cccs2)cc1 (stereo not given) fall in?
Reply | middle

Ask | Which band does Cc1ccc(-c2nnc(SCC(=O)N3CC(C)CC(C)C3)o2)cc1C (stereo not given) fall in?
Reply | high end

Ask | Which band does `CC(C)(C)c1ccc(-c2nnc(SCCC#N)n2C2CCCC2)cc1` fall in?
Reply | high end

Ask | Which band does `CCCN1CCN(C(=O)Cn2cccc2C(=O)c2ccccc2)CC1` fall in?
Reply | low end

Ask | Which band does `COc1ccc(OC)c(S(=O)(=O)Nc2ccc(O)c3ccccc23)c1` fall in?
Reply | low end

Ask | Which band does `Cc1ccc(N(Cc2ccco2)C(=O)c2cccc(S(=O)(=O)N(C)C)c2)cc1` fall in?
Reply | low end

Ask | Which band does `CCOc1ccc(OCC)c(NS(=O)(=O)c2ccc3c(c2)n(C)c(=O)c(=O)n3C)c1` fall in?
Reply | middle

Ask | Which band does `C=CCSc1nnc(-c2cccnc2)o1` fall in?
Reply | high end

Ask | Which band does CCCNC(=O)C1=C(C)C(=O)OC12CCC(C)CC2 (stereo not given) fall in?
Reply | high end

Ask | Which band does `O=C(c1cc2nc(-c3ccco3)cc(C(F)(F)F)n2n1)N1CCN(c2ccccn2)CC1` fall in?
Reply | low end

Ask | Which band does `COc1ccc(NC(=O)Cn2nnc(-c3ccccc3F)n2)cc1Cl` fall in?
Reply | middle

Ask | Which band does CC1Cc2ccccc2N1C(=O)COC(=O)Cn1nnc(-c2ccccc2)n1 (stereo not given) fall in?
Reply | middle

###

Experiment: blockers of RIG-like receptor reporter activation – cell-based, Sendai virus stimulus, luciferase, 10K MLSCN set, TLR/RLR signaling modifier project, primary screen (AID 602276);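 further: firefly luciferase from ISG56 promoter only with Renilla not read in this screen; 0% = Sendai virus plus DMSO and 100% = medium plus DMSO without virus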
Conditions: HEK293 RL24 IRF3 luciferase reporter, at 10 µM, stronger effect = higher value
property.measured: inhibition (%)
One number for each entry, in %.

Would you please look over these solved cases?
Ask | Query: inhibition; subject: `CC(C)c1nnc(NC(=O)Cc2cccs2)s1`
Reply | 0.388

Ask | Query: inhibition; subject: `O=C(c1ccc(S(=O)(=O)N2CCC(c3nc4ccccc4s3)CC2)cc1)N1CCOCC1`
Reply | -8.58

Ask | Query: inhibition; subject: CCOC(=O)c1cnc(-n2nc(C)cc2C)nc1NC(C)c1ccccc1 (centres undefined)
Reply | 8.07

# context switch: different molecule, same inhibition
Ask | Query: inhibition; subject: CC1CCCCC1NC(=O)COc1ccc(-n2cnnn2)cc1 (centres undefined)
Reply | 6.84
